- system: TAOK1 (human)
- run-description: KINOMEscan competition binding
- details: compound 10.0 µM
property: kinase still bound, per cent of control (%)
Numeric answer only, unit % assumed.

Recorded result, COc1cc(N2CCC(N3CCN(C)CC3)CC2)ccc1Nc1ncc(Cl)c(Nc2ccccc2S(=O)(=O)C(C)C)n1 , kinase still bound, per cent of control: 0.1

In plain terms, CCN1CCN(Cc2ccc(NC(=O)c3ccc(C)c(/C=C/c4cnc(Nc5cc(N6CCNCC6)nc(C)n5)cn4)c3)cc2C(F)(F)F)CC1 has a documented kinase still bound, per cent of control of 7

kinase still bound, per cent of control in this record for CCN1CCN(Cc2ccc(NC(=O)c3ccc(C)c(Oc4ccnc5[nH]ccc45)c3)cc2C(F)(F)F)CC1 : 3

Record summary for CCOc1cc(N2CCC(N3CCCCC3)CC2)ccc1Nc1nc(Nc2ccccc2S(=O)(=O)C(C)C)c2cn[nH]c2n1 : reported kinase still bound, per cent of control = 33

###

- system: HIPK1 (human) (UniProt Q86Z02)
- Sequence (Q86Z02 whole entry, looked up): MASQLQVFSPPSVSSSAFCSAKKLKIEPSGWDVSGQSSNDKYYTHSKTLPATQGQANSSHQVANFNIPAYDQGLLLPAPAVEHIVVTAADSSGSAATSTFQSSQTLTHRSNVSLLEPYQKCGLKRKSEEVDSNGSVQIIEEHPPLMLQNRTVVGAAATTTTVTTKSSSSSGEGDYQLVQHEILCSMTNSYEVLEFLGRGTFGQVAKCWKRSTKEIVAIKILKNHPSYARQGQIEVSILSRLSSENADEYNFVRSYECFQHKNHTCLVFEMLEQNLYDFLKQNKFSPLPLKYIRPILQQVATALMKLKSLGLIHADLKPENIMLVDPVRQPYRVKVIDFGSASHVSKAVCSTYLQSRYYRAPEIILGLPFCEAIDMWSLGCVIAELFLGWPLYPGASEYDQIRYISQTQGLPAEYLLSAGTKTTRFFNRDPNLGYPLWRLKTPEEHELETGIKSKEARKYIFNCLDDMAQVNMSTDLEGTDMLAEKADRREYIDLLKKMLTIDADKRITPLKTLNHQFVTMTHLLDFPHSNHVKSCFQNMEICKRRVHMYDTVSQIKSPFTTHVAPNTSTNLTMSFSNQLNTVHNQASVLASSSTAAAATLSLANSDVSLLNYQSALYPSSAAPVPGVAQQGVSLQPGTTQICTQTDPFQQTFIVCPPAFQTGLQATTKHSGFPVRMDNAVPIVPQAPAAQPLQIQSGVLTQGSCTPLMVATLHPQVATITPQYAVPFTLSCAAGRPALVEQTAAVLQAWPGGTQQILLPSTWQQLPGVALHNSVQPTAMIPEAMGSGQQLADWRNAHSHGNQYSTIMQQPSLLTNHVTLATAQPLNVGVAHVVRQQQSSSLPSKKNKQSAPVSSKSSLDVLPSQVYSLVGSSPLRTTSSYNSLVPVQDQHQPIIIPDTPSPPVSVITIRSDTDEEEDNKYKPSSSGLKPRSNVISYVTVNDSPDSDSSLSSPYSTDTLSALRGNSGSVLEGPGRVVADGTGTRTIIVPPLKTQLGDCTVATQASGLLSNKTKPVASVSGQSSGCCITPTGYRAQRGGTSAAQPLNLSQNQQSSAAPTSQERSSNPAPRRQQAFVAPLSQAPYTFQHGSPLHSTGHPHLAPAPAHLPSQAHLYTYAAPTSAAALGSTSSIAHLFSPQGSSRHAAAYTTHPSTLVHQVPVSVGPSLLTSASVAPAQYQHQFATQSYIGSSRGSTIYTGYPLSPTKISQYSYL
- run-description: KINOMEscan competition binding
- details: compound 10.0 µM
property: kinase still bound, per cent of control (%)
Lab book: enter the figure in %, no units written.

kinase still bound, per cent of control measured on CCN1CCN(Cc2ccc(NC(=O)c3ccc(C)c(/C=C/c4cnc(Nc5cc(N6CCNCC6)nc(C)n5)cn4)c3)cc2C(F)(F)F)CC1 = 34

Notebook: COc1cc(N2CCC(N3CCN(C)CC3)CC2)ccc1Nc1ncc(Cl)c(Nc2ccccc2S(=O)(=O)C(C)C)n1 , kinase still bound, per cent of control read as 40

Please fill in: kinase still bound, per cent of control reported for CCOc1cc(N2CCC(N3CCCCC3)CC2)ccc1Nc1nc(Nc2ccccc2S(=O)(=O)C(C)C)c2cn[nH]c2n1 = 82

kinase still bound, per cent of control measured on CCN1CCN(Cc2ccc(NC(=O)c3ccc(C)c(Oc4ccnc5[nH]ccc45)c3)cc2C(F)(F)F)CC1 = 6.2

###

- system: SRC (human) (UniProt P12931)
- Sequence (P12931 whole entry, looked up): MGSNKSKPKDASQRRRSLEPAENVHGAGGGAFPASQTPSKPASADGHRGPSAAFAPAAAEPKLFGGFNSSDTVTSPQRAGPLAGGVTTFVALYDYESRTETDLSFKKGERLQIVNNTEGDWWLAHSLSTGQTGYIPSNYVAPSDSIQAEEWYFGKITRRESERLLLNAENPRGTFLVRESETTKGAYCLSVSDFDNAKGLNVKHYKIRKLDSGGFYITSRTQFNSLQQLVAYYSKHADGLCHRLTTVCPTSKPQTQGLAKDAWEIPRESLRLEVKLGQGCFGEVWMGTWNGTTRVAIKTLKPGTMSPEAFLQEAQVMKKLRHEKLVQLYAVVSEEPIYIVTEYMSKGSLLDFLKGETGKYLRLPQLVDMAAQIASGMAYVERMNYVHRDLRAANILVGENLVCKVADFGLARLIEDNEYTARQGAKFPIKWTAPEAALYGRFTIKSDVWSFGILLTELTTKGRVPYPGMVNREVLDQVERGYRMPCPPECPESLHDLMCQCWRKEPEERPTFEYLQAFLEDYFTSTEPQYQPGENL
- run-description: KINOMEscan competition binding
- details: compound 10.0 µM
So I've got a bunch of compounds here, and I need their kinase still bound, per cent of control values.
Numbers only; they are read as %.

Record for CCOc1cc(N2CCC(N3CCCCC3)CC2)ccc1Nc1nc(Nc2ccccc2S(=O)(=O)C(C)C)c2cn[nH]c2n1 under target or system SRC (human) (UniProt P12931): kinase still bound, per cent of control reported as 69

Assay SRC (human) (UniProt P12931), sample COc1cc(N2CCC(N3CCN(C)CC3)CC2)ccc1Nc1ncc(Cl)c(Nc2ccccc2S(=O)(=O)C(C)C)n1 , kinase still bound, per cent of control read: 0.2

SRC (human) (UniProt P12931) data for CCN1CCN(Cc2ccc(NC(=O)c3ccc(C)c(Oc4ccnc5[nH]ccc45)c3)cc2C(F)(F)F)CC1 ; its kinase still bound, per cent of control: 0.2

Lab entry: SRC (human) (UniProt P12931) assay, compound CCN1CCN(Cc2ccc(NC(=O)c3ccc(C)c(/C=C/c4cnc(Nc5cc(N6CCNCC6)nc(C)n5)cn4)c3)cc2C(F)(F)F)CC1 , kinase still bound, per cent of control = 0.25

###

For each record, write down the corresponding kinase still bound, per cent of control.
- system: MKNK2 (human)
- run-description: KINOMEscan competition binding
- details: compound 10.0 µM
Don't forget the unit after the number, please.

Given item CCOc1cc(N2CCC(N3CCCCC3)CC2)ccc1Nc1nc(Nc2ccccc2S(=O)(=O)C(C)C)c2cn[nH]c2n1 , the value recorded as its kinase still bound, per cent of control is 100%

Value of measured kinase still bound, per cent of control for the entry CCN1CCN(Cc2ccc(NC(=O)c3ccc(C)c(/C=C/c4cnc(Nc5cc(N6CCNCC6)nc(C)n5)cn4)c3)cc2C(F)(F)F)CC1 : 18%

kinase still bound, per cent of control for CCN1CCN(Cc2ccc(NC(=O)c3ccc(C)c(Oc4ccnc5[nH]ccc45)c3)cc2C(F)(F)F)CC1 is 4.2%

kinase still bound, per cent of control recorded for this compound, COc1cc(N2CCC(N3CCN(C)CC3)CC2)ccc1Nc1ncc(Cl)c(Nc2ccccc2S(=O)(=O)C(C)C)n1 , is 1.4%
